Data origin, for the record: ChEMBL document CHEMBL1649268

Recorded measurements of Activity, one per entry
- Tested on: Enterococcus faecalis
- assayExplanation: Antimicrobial activity against Enterococcus faecalis expressing VanA gene clinical isolates assessed as resistant isolates by broth microdilution method
- Format: functional
readoutKind: Activity (%)

[[record]]
smilesdata = "CC1(C)S[C@@H]2[C@H](NC(=O)[C@H](N)c3ccccc3)C(=O)N2[C@H]1C(=O)O"
unitsymbol = "%"
quantitativereadout = 0

[[record]]
smilesdata = "CN[C@H](CC(C)C)C(=O)N[C@H]1C(=O)N[C@@H](CC(N)=O)C(=O)N[C@H]2C(=O)N[C@H]3C(=O)N[C@H](C(=O)N[C@H](C(=O)O)c4cc(O)cc(O)c4-c4cc3ccc4O)[C@H](O)c3ccc(c(Cl)c3)Oc3cc2cc(c3O[C@@H]2O[C@H](CO)[C@@H](O)[C@H](O)[C@H]2O[C@H]2C[C@](C)(N)[C@H](O)[C@H](C)O2)Oc2ccc(cc2Cl)[C@H]1O"
unitsymbol = "%"
quantitativereadout = 100

[[record]]
smilesdata = "CC(=O)NC[C@H]1CN(c2ccc(N3CCOCC3)c(F)c2)C(=O)O1"
unitsymbol = "%"
quantitativereadout = 1.5

[[record]]
smilesdata = "C[C@H]1COc2c(N3CCN(C)CC3)c(F)cc3c(=O)c(C(=O)O)cn1c23.C[C@H]1COc2c(N3CCN(C)CC3)c(F)cc3c(=O)c(C(=O)O)cn1c23.O"
unitsymbol = "%"
quantitativereadout = 100

[[record]]
smilesdata = "CN[C@@H]1[C@H](O[C@H]2[C@H](O[C@H]3[C@H](O)[C@@H](O)[C@H](N=C(N)N)[C@@H](O)[C@@H]3N=C(N)N)O[C@@H](C)[C@]2(O)C=O)O[C@@H](CO)[C@H](O)[C@H]1O"
unitsymbol = "%"
quantitativereadout = 50.8


====

- Tested on: Staphylococcus haemolyticus
- assayExplanation: Antimicrobial activity against Staphylococcus haemolyticus clinical isolates by broth microdilution method
- Type: functional
We begin with a simple list: items and their reported MIC90.
readoutKind: MIC90 (µg/mL)

[[record]]
smilesdata = "CCCCCCCCCC(=O)N[C@@H](Cc1c[nH]c2ccccc12)C(=O)N[C@H](CC(N)=O)C(=O)N[C@@H](CC(=O)O)C(=O)N[C@@H]1C(=O)NCC(=O)N[C@@H](CCCN)C(=O)N[C@@H](CC(=O)O)C(=O)N[C@H](C)C(=O)N[C@@H](CC(=O)O)C(=O)NCC(=O)N[C@H](CO)C(=O)N[C@@H]([C@H](C)CC(=O)O)C(=O)N[C@@H](CC(=O)c2ccccc2N)C(=O)O[C@@H]1C"
measurementtarget = "Staphylococcus haemolyticus"
measurementqualifier = "="
quantitativereadout = 0.5

[[record]]
smilesdata = "CN[C@H](CC(C)C)C(=O)N[C@H]1C(=O)N[C@@H](CC(N)=O)C(=O)N[C@H]2C(=O)N[C@H]3C(=O)N[C@H](C(=O)N[C@H](C(=O)O)c4cc(O)cc(O)c4-c4cc3ccc4O)[C@H](O)c3ccc(c(Cl)c3)Oc3cc2cc(c3O[C@@H]2O[C@H](CO)[C@@H](O)[C@H](O)[C@H]2O[C@H]2C[C@](C)(N)[C@H](O)[C@H](C)O2)Oc2ccc(cc2Cl)[C@H]1O"
measurementtarget = "Staphylococcus haemolyticus"
measurementqualifier = "="
quantitativereadout = 2

[[record]]
smilesdata = "Cc1onc(-c2ccccc2)c1C(=O)N[C@@H]1C(=O)N2[C@@H]1SC(C)(C)[C@@H]2C(=O)O"
measurementtarget = "Staphylococcus haemolyticus"
measurementqualifier = ">"
quantitativereadout = 8

[[record]]
smilesdata = "CCC[C@@H]1C[C@@H](C(=O)N[C@@H]([C@H]2O[C@H](SC)[C@H](O)[C@@H](O)[C@H]2O)[C@H](C)Cl)N(C)C1"
measurementtarget = "Staphylococcus haemolyticus"
measurementqualifier = ">"
quantitativereadout = 2

[[record]]
smilesdata = "CC(=O)NC[C@H]1CN(c2ccc(N3CCOCC3)c(F)c2)C(=O)O1"
measurementtarget = "Staphylococcus haemolyticus"
measurementqualifier = "="
quantitativereadout = 1

[[record]]
smilesdata = "CN[C@H](CC(C)C)C(=O)N[C@H]1C(=O)N[C@@H](CC(N)=O)C(=O)N[C@H]2C(=O)N[C@H]3C(=O)N[C@H](C(=O)N[C@H](C(=O)O)c4cc(O)cc(O)c4-c4cc3ccc4O)[C@H](O[C@H]3C[C@](C)(N)[C@@H](O)[C@H](C)O3)c3ccc(c(Cl)c3)Oc3cc2cc(c3O[C@@H]2O[C@H](CO)[C@@H](O)[C@H](O)[C@H]2O[C@H]2C[C@](C)(NCc3ccc(-c4ccc(Cl)cc4)cc3)[C@@H](O)[C@H](C)O2)Oc2ccc(cc2Cl)[C@H]1O"
measurementtarget = "Staphylococcus haemolyticus"
measurementqualifier = "="
quantitativereadout = 0.12

[[record]]
smilesdata = "CC[C@H]1OC(=O)[C@H](C)[C@@H](O[C@H]2C[C@@](C)(OC)[C@@H](O)[C@H](C)O2)[C@H](C)[C@@H](O[C@@H]2O[C@H](C)C[C@H](N(C)C)[C@H]2O)[C@](C)(O)C[C@@H](C)C(=O)[C@H](C)[C@@H](O)[C@]1(C)O"
measurementtarget = "Staphylococcus haemolyticus"
measurementqualifier = ">"
quantitativereadout = 8

